test: Cmax in overnight fasted CD1 nu/nu mouse at 10 mg/kg, po; assay type: ADME, organism-based; parameters: dose 10 mg/kg, route oral; details: in vivo
parameter-measured: Cmax (nM)
Answers are plain numbers, in nM.

Enquiry: # get_value(readout='Cmax', item= CN1CCN(c2ccc(OC(F)(F)F)c(Nc3ncc4c(n3)-c3c(c(C(N)=O)nn3CCO)CC4)c2)CC1.Cl )
Return: 640

---

molecular target: Aurora kinase B (Homo sapiens, UniProt Q96GD4)
Sequence (Q96GD4 whole entry): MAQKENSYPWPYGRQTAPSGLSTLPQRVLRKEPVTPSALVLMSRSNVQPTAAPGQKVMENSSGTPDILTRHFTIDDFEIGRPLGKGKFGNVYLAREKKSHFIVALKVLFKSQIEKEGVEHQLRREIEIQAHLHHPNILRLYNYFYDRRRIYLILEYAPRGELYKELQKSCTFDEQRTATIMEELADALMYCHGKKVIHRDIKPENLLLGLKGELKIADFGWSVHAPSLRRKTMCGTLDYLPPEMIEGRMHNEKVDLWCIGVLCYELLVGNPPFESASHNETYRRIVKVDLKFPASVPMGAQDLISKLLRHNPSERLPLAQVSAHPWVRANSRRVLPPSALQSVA
parameter-measured: IC50

Enquiry: # get_value(readout='IC50', item= CN1CCN(c2ccc(OC(F)(F)F)c(Nc3ncc4c(n3)-c3c(c(C(N)=O)nn3CCO)CC4)c2)CC1 )
Return: > 10 µM

---

target: RAC-alpha serine/threonine-protein kinase (Homo sapiens, UniProt P31749)
Sequence (P31749 whole entry): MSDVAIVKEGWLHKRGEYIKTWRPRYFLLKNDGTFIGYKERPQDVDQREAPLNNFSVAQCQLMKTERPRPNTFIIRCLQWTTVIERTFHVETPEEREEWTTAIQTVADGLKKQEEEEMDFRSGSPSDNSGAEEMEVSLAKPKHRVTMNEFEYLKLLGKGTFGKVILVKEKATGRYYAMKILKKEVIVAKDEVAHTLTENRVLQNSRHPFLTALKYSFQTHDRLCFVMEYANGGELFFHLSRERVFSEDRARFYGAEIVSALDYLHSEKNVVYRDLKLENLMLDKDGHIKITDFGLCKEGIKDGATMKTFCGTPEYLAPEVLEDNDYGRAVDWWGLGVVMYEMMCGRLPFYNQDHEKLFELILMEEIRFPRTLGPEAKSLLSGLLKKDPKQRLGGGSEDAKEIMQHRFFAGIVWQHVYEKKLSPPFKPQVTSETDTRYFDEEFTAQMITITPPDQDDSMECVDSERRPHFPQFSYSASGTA
pIC50: −log10 of the molar value.
parameter-measured: pIC50

Enquiry: So what pIC50 did CN1CCN(c2ccc(OC(F)(F)F)c(Nc3ncc4c(n3)-c3c(c(C(N)=O)nn3CCO)CC4)c2)CC1 get with RAC-alpha serine/threonine-protein kinase (Homo sapiens, UniProt P31749)?
Return: < 5.00

---

Target chain: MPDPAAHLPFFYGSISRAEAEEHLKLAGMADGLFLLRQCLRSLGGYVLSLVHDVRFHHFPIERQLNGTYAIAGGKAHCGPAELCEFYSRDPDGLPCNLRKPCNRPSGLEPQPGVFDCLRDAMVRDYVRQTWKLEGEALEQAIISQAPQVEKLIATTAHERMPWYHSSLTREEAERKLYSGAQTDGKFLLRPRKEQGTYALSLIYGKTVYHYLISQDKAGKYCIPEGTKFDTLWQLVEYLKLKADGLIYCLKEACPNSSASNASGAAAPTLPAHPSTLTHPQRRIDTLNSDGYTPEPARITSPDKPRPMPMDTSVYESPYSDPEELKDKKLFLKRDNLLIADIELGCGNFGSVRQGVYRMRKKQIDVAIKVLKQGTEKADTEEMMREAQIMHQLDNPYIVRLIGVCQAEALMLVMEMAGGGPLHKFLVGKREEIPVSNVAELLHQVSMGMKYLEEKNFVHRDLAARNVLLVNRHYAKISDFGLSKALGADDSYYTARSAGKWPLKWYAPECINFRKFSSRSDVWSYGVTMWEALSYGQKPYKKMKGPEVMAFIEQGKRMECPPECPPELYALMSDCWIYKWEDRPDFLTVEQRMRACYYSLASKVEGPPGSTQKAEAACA
pIC50: −log10 of the molar value.
parameter-measured: pIC50

Enquiry: # get_value(readout='pIC50', item= CN1CCN(c2ccc(OC(F)(F)F)c(Nc3ncc4c(n3)-c3c(c(C(N)=O)nn3CCO)CC4)c2)CC1 [ONVANSERTIB] )
Return: < 5.00

---

test: Solubility of compound at pH 7; assay type: physicochemical; details: buffer
parameter-measured: solubility (µM)
Answers are plain numbers, in µM.

| mol-smiles | measurement-unit | recorded-value |
| --- | --- | --- |
| CN(C)CCCn1nc(C(N)=O)c2c1-c1nc(Nc3cc(N4CCN(C)CC4)ccc3OC(F)(F)F)ncc1CC2 | µM | 200 |
| CCN(CC)CCN(C)c1ccc(OC(F)(F)F)c(Nc2ncc3c(n2)-c2c(c(C(N)=O)nn2C)CC3)c1 | µM | 162 |
| CN1CCC(C(=O)Nc2ccc(OC(F)(F)F)c(Nc3ncc4c(n3)-c3c(c(C(N)=O)nn3C)CC4)c2)CC1 | µM | 33 |

// batch mode: one solubility value per listed entry
1. CN1CCC(c2ccc(OC(F)(F)F)c(Nc3ncc4c(n3)-c3c(c(C(N)=O)nn3C)CC4)c2)CC1
2. CN1CCN(c2ccc(OC(F)(F)F)c(Nc3ncc4c(n3)-c3c(c(C(N)=O)nn3CCCN)CC4)c2)CC1

Return:
[203, 186]
